- test_protocol: Oral bioavailability of Compound A 25-mg and 100-mg oral tablets, fasted and fed, in healthy adult subjects
- Format: in vivo, human
- condition_details: both sexes, human, in vivo, oral, 150 mg, 6 × 25 mg, Fed, Treatment A; read-out: AUC∞ (mean)
readout: AUC(0-inf) (µg·h/mL)
Give the value, in units of µg·h/mL, as a plain number.

Task: Entry "C[C@H](NS(=O)(=O)c1cc(C(=O)Nc2ccc(F)c(C#N)c2)n(C)c1)C(F)(F)F" : reported AUC(0-inf) = ?
Output: 177

* * *

- test_protocol: Pharmacokinetics of single ascending doses in healthy Japanese volunteers
- Type: in vivo, human
- condition_details: human, plasma, oral; 160 mg single dose, fasted (n = 6); read-out: Median tmax
readout: Tmax (h)
Give the value, in units of h, as a plain number.

Task: Entry C[C@H](NS(=O)(=O)c1cc(C(=O)Nc2ccc(F)c(C#N)c2)n(C)c1)C(F)(F)F [Compound A] : reported Tmax = ?
Output: 3

* * *

- test_protocol: Pharmacokinetics of single ascending doses in healthy Japanese volunteers
- Assay type: in vivo, human
- condition_details: human, plasma, oral; 500 mg single dose, fasted (n = 6); read-out: Mean t1/2 term (SD) (converted)
readout: half-life (h)
Give the value, in units of h, as a plain number.

Task: Entry "C[C@H](NS(=O)(=O)c1cc(C(=O)Nc2ccc(F)c(C#N)c2)n(C)c1)C(F)(F)F" : reported half-life = ?
Output: 95.6

* * *

- test_protocol: Pharmacokinetics of single ascending doses in healthy Japanese volunteers
- Assay type: in vivo, human
- condition_details: human, plasma, oral; 25 mg single dose, fasted (n = 6); read-out: Mean Vd/F (SD)
readout: Vd/F (L)
Give the value, in units of L, as a plain number.

Task: Entry C[C@H](NS(=O)(=O)c1cc(C(=O)Nc2ccc(F)c(C#N)c2)n(C)c1)C(F)(F)F [Compound A] : reported Vd/F = ?
Output: 132

* * *

- test_protocol: Pharmacokinetics of single ascending doses in healthy Japanese volunteers
- Assay type: in vivo, human
- condition_details: human, plasma, oral; 300 mg single dose, fasted (n = 6); read-out: Mean t1/2 term (SD) (converted)
readout: half-life (h)
Give the value, in units of h, as a plain number.

Task: Entry "C[C@H](NS(=O)(=O)c1cc(C(=O)Nc2ccc(F)c(C#N)c2)n(C)c1)C(F)(F)F" : reported half-life = ?
Output: 116

* * *

- test_protocol: Pharmacokinetics of single ascending doses in healthy Japanese volunteers
- Assay type: in vivo, human
- condition_details: human, plasma, oral; 500 mg single dose, fasted (n = 6); read-out: Mean Vd/F (SD)
- Procedure: A double-blind, placebo-controlled study was done to assess the safety, tolerability, and pharmacokinetics (PK) of Compound A. Thirty-two healthy adult Japanese volunteers were randomized into four cohorts. […] The safety, tolerability and PK plasma profiles of Compound A were assessed after each dose. Full plasma PK profiles were determined up to 28 days after each single dose of Compound A. Urinary elimination was assessed in Cohort C (see FIG. 4) for 7 day. […]
readout: Vd/F (L)
Give the value, in units of L, as a plain number.

Task: Entry "C[C@H](NS(=O)(=O)c1cc(C(=O)Nc2ccc(F)c(C#N)c2)n(C)c1)C(F)(F)F" : reported Vd/F = ?
Output: 119

* * *

- test_protocol: Pharmacokinetics of single ascending doses in healthy Japanese volunteers
- Assay type: in vivo, human
- condition_details: human, plasma, oral; 160 mg single dose, fasted (n = 6); read-out: Mean t1/2 term (SD) (converted)
readout: half-life (h)
Give the value, in units of h, as a plain number.

Task: Entry "C[C@H](NS(=O)(=O)c1cc(C(=O)Nc2ccc(F)c(C#N)c2)n(C)c1)C(F)(F)F" : reported half-life = ?
Output: 100

* * *

- test_protocol: Oral bioavailability of Compound A 25-mg and 100-mg oral tablets, fasted and fed, in healthy adult subjects
- Assay type: in vivo, human
- condition_details: both sexes, human, in vivo, oral, 150 mg, 6 × 25 mg, Fasting, Treatment B (Reference); read-out: Cmax, Geometric Mean
readout: Cmax

Task: Entry "C[C@H](NS(=O)(=O)c1cc(C(=O)Nc2ccc(F)c(C#N)c2)n(C)c1)C(F)(F)F" : reported Cmax = ?
Output: 1770 ng/mL

* * *

- test_protocol: Oral bioavailability of Compound A 25-mg and 100-mg oral tablets, fasted and fed, in healthy adult subjects
- Assay type: in vivo, human
- condition_details: both sexes, human, in vivo, oral, 150 mg, 6 × 25 mg, Fasting, Treatment B; read-out: AUClast (mean)
readout: AUC(0-t) (µg·h/mL)
Give the value, in units of µg·h/mL, as a plain number.

Task: Entry "C[C@H](NS(=O)(=O)c1cc(C(=O)Nc2ccc(F)c(C#N)c2)n(C)c1)C(F)(F)F" : reported AUC(0-t) = ?
Output: 177

* * *

- test_protocol: Oral bioavailability of Compound A 25-mg and 100-mg oral tablets, fasted and fed, in healthy adult subjects
- Assay type: in vivo, human
- condition_details: both sexes, human, in vivo, oral, 150 mg, 6 × 25 mg, Fed, Treatment A; read-out: tmax (median)
readout: Tmax

Task: Entry C[C@H](NS(=O)(=O)c1cc(C(=O)Nc2ccc(F)c(C#N)c2)n(C)c1)C(F)(F)F [Compound A] : reported Tmax = ?
Output: 4 h

* * *

- test_protocol: Oral bioavailability of Compound A 25-mg and 100-mg oral tablets, fasted and fed, in healthy adult subjects
- Assay type: in vivo, human
- condition_details: both sexes, human, in vivo, oral, 150 mg, 6 × 25 mg, Fed, Treatment A (Test); read-out: AUClast, Geometric Mean
readout: AUC(0-t) (µg·h/mL)
Give the value, in units of µg·h/mL, as a plain number.

Task: Entry "C[C@H](NS(=O)(=O)c1cc(C(=O)Nc2ccc(F)c(C#N)c2)n(C)c1)C(F)(F)F" : reported AUC(0-t) = ?
Output: 165

* * *

- test_protocol: Oral bioavailability of Compound A 25-mg and 100-mg oral tablets, fasted and fed, in healthy adult subjects
- Type: in vivo, human
- condition_details: both sexes, human, in vivo, oral, 300 mg, 3 × 100 mg, Fasting, Treatment C; read-out: Cmax (mean)
readout: Cmax
Answer as a quantity: numeral, then unit.

Task: Entry "C[C@H](NS(=O)(=O)c1cc(C(=O)Nc2ccc(F)c(C#N)c2)n(C)c1)C(F)(F)F" : reported Cmax = ?
Output: 2770 ng/mL

* * *

- test_protocol: Oral bioavailability of Compound A 25-mg and 100-mg oral tablets, fasted and fed, in healthy adult subjects
- Format: in vivo, human
- condition_details: both sexes, human, in vivo, oral, 150 mg, 6 × 25 mg, Fasting, Treatment B; read-out: AUC∞ (mean)
- Text: […]
readout: AUC(0-inf) (µg·h/mL)
Give the value, in units of µg·h/mL, as a plain number.

Task: Entry "C[C@H](NS(=O)(=O)c1cc(C(=O)Nc2ccc(F)c(C#N)c2)n(C)c1)C(F)(F)F" : reported AUC(0-inf) = ?
Output: 182

* * *

- test_protocol: Oral bioavailability of Compound A 25-mg and 100-mg oral tablets, fasted and fed, in healthy adult subjects
- Format: in vivo, human
- condition_details: both sexes, human, in vivo, oral, 150 mg, 6 × 25 mg, Fed, Treatment A; read-out: AUClast (mean)
readout: AUC(0-t) (µg·h/mL)
Give the value, in units of µg·h/mL, as a plain number.

Task: Entry C[C@H](NS(=O)(=O)c1cc(C(=O)Nc2ccc(F)c(C#N)c2)n(C)c1)C(F)(F)F [Compound A] : reported AUC(0-t) = ?
Output: 171
